# Tested on: A549 cells
# assay.protocol: MTT assay, antiproliferative activity, A549
# Type: cell-based, human
# study.conditions: Homo sapiens, A549; MTT, 24 h treatment, mean ± SD
pIC50: −log10 of the molar value.
Reported pIC50 values are given for each entry in this list.
experimental.endpoint: pIC50

- molecule: "O=c1n(-c2nc(-c3cccs3)cs2)ncc2cccn12"
  experimental.endpoint: "pIC50"
  value.prefix: "<"
  result.value: 4.00
- molecule: "O=c1n(-c2nc(-c3ccc(C(F)(F)F)cc3)cs2)ncc2cccn12"
  experimental.endpoint: "pIC50"
  value.prefix: "="
  result.value: 4.10
- molecule: "O=c1n(-c2nc(-c3ccc(Br)cc3)cs2)ncc2cccn12"
  experimental.endpoint: "pIC50"
  value.prefix: "="
  result.value: 4.15
- molecule: "O=c1n(-c2nc(-c3ccc4ccccc4c3)cs2)ncc2cccn12"
  experimental.endpoint: "pIC50"
  value.prefix: "<"
  result.value: 4.00
- molecule: "O=c1n(-c2nc(-c3ccc(-c4ccccc4)cc3)cs2)ncc2cccn12"
  experimental.endpoint: "pIC50"
  value.prefix: "="
  result.value: 4.11
- molecule: "COc1cccc2c1C(=O)c1c(O)c3c(c(O)c1C2=O)C[C@@](O)(C(=O)CO)C[C@@H]3O[C@H]1C[C@H](N)[C@H](O)[C@H](C)O1 [Dox, doxorubicin, reference compound]"
  experimental.endpoint: "pIC50"
  value.prefix: "="
  result.value: 6.21
- molecule: "O=c1n(-c2nc(-c3ccc(O)cc3)cs2)ncc2cccn12"
  experimental.endpoint: "pIC50"
  value.prefix: "<"
  result.value: 4.00
- molecule: "O=c1n(-c2nc(-c3ccc(F)cc3)cs2)ncc2cccn12"
  experimental.endpoint: "pIC50"
  value.prefix: "="
  result.value: 4.35
- molecule: "O=c1n(-c2nc(-c3ccc(Cl)cc3Cl)cs2)ncc2cccn12"
  experimental.endpoint: "pIC50"
  value.prefix: "="
  result.value: 4.43
- molecule: "O=c1n(-c2nc(-c3ccc(F)c(F)c3)cs2)ncc2cccn12"
  experimental.endpoint: "pIC50"
  value.prefix: "="
  result.value: 4.34
- molecule: "Cc1csc(-n2ncc3cccn3c2=O)n1"
  experimental.endpoint: "pIC50"
  value.prefix: "<"
  result.value: 4.00
- molecule: "COc1ccc(-c2csc(-n3ncc4cccn4c3=O)n2)cc1"
  experimental.endpoint: "pIC50"
  value.prefix: "<"
  result.value: 4.00
- molecule: "O=c1n(-c2nc(-c3cc4ccccc4o3)cs2)ncc2cccn12"
  experimental.endpoint: "pIC50"
  value.prefix: "<"
  result.value: 4.00
- molecule: "O=c1n(-c2nc(-c3ccc(F)c(Cl)c3)cs2)ncc2cccn12"
  experimental.endpoint: "pIC50"
  value.prefix: "="
  result.value: 4.60
- molecule: "O=c1n(-c2nc(-c3ccc(Cl)c(Cl)c3)cs2)ncc2cccn12"
  experimental.endpoint: "pIC50"
  value.prefix: "="
  result.value: 4.41
- molecule: "Cc1ccc(-c2csc(-n3ncc4cccn4c3=O)n2)cc1"
  experimental.endpoint: "pIC50"
  value.prefix: "<"
  result.value: 4.00
- molecule: "O=c1n(-c2nc(-c3ccc(Cl)cc3)cs2)ncc2cccn12"
  experimental.endpoint: "pIC50"
  value.prefix: "="
  result.value: 4.41
- molecule: "O=c1n(-c2nc(-c3ccccc3)cs2)ncc2cccn12"
  experimental.endpoint: "pIC50"
  value.prefix: "<"
  result.value: 4.00
